Parameter: 100 mM HAc elution K. Scope: all listed entries.
# Test Target: T1, BMP-12 (UniProt Q7Z4P5 322-450, limits assumed)
# T1 construct: also called BMP12/GDF7
# T1 sequence (looked up): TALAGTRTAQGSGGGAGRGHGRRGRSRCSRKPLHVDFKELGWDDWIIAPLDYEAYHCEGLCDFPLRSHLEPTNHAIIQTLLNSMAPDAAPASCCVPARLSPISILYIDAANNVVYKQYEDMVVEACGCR
# Experiment Description: peptide resin, filter plate; load 4: 25 mM MES pH 6.0
No end group written: not given here.

| Binder | 100 mM HAc elution K |
| --- | --- |
| Ac-SDVGWNDWIVAPPGYHAFYCHGEK [BMP2 N-trun peptide 750] | 1 |
| Ac-VAPPGYHAFYSHGEK [BMP2 N-trunc_2 peptide 745] | -1 |
| Ac-RDLGWQDWIIAPEGYAAFYSDGEK [BMP5 peptide 748] | 2 |
| Ac-LYVSDVGWNDWIVK (not fully specified (residue 3); printed as Ac-LYV**SDVGWNDWIVK; also: ** after V3 not explained) [BMP2 C-trunc_2 peptide 746] | 1 |
| Ac-LYVDFSDVGWNDWIVAPPGYHAFYSHGEK [BMP2 Full peptide 747] | 1 |
| Ac-ELGWDDWIIAPLDYEAYHSEGLK [BMP12 N-trun_1S peptide 749] | 1 |
| Ac-SDVGWNDWIVAPPGYHAFYSHGEK [BMP2 N-trun 1S peptide 751] | 1 |
